# assayProcedure: PO Dosing in Rats: urinary excretion profile
# Type: in vivo, Male Sprague-Dawley Rats
# conditionSummary: analyte = dosed compound itself in urine, PO 3 mg/kg, male rats
experimentalEndpoint: Urinary Distribution (%) 6-12 h

The cases that follow already have their Urinary Distribution (%) 6-12 h on record.
1) CC(C)[C@H](NC(=O)CSc1ncc(Br)n1-c1ccc(C#N)c2ccccc12)C(=O)O [Example 9] : 26
2) C[C@H](NC(=O)CSc1ncc(Br)n1-c1ccc(C#N)c2ccccc12)C(=O)O [Example 8] : 32

[a] N#Cc1ccc(-n2c(Br)cnc2SCC(=O)NCCC(=O)O)c2ccccc12 [Example 7]
[b] N#Cc1ccc(-n2c(Br)cnc2SCC(=O)NCC(=O)O)c2ccccc12 [Example 3]
Exercise: Could you tell me which of a and b has the lower Urinary Distribution (%) 6-12 h reading? Your choice should be expressed through its label.
Solution: b

---

# assayProcedure: PO Dosing in Rats: plasma profile
# Type: in vivo, Male Sprague-Dawley Rats
# conditionSummary: male, Sprague-Dawley, rat, plasma, po, 3 mg/kg, analyte = dosed compound itself, PO 3 mg/kg, male rats; read-out: AUC t = _12
experimentalEndpoint: AUC(0-t) (ng·h/mL)

1. CC(C)[C@H](NC(=O)CSc1ncc(Br)n1-c1ccc(C#N)c2ccccc12)C(=O)O : 67.7
2. N#Cc1ccc(-n2c(Br)cnc2SCC(=O)NCC(=O)O)c2ccccc12 : 79.8
3. C[C@H](NC(=O)CSc1ncc(Br)n1-c1ccc(C#N)c2ccccc12)C(=O)O : 83.9

---

# assayProcedure: PO Dosing in Rats: plasma profile
# Type: in vivo, Male Sprague-Dawley Rats
# conditionSummary: Sprague-Dawley, rat; analyte = dosed compound itself in plasma, PO 3 mg/kg, male rats
experimentalEndpoint: Tmax (h)

1) N#Cc1ccc(-n2c(Br)cnc2SCC(=O)NCC(=O)O)c2ccccc12 : 0.833

[I] C[C@H](NC(=O)CSc1ncc(Br)n1-c1ccc(C#N)c2ccccc12)C(=O)O
[II] CC(C)[C@H](NC(=O)CSc1ncc(Br)n1-c1ccc(C#N)c2ccccc12)C(=O)O
Exercise: Of the two listed items, I and II , which carries the larger Tmax figure? Respond using the label that marks the chosen record.
Solution: II
(II: 2.67 h, I: 1 h)

---

# assayProcedure: PO Dosing in Rats: urinary excretion profile
# Format: in vivo, Male Sprague-Dawley Rats
# conditionSummary: analyte = dosed compound itself in urine, PO 3 mg/kg, male rats
experimentalEndpoint: Urinary Distribution (%) 0-6 h

1. CC(C)[C@H](NC(=O)CSc1ncc(Br)n1-c1ccc(C#N)c2ccccc12)C(=O)O [Example 9] : 66
2. N#Cc1ccc(-n2c(Br)cnc2SCC(=O)NCCC(=O)O)c2ccccc12 [Example 7] : 63
3. C[C@H](NC(=O)CSc1ncc(Br)n1-c1ccc(C#N)c2ccccc12)C(=O)O [Example 8] : 63
4. N#Cc1ccc(-n2c(Br)cnc2SCC(=O)NCC(=O)O)c2ccccc12 [Example 3] : 74
